test: in vitro; conditions: human
Structures can show the parent of a compound that is named as a salt.
Measured CC50, listed per entry for reference.

- compound: "CN1[C@@H]2CC[C@H]1C[C@@H](OC(c1ccccc1)c1ccc(Cl)cc1)C2 (some centres unmarked)"
  CC50: "> 30 µM"
- compound: "CN1CCN(C(c2ccccc2)c2ccc(Cl)cc2)CC1 (centres unmarked)"
  CC50: "> 30 µM"
- compound: "O=C1NCCN1CCN1CCC(c2cn(-c3ccc(F)cc3)c3ccc(Cl)cc23)CC1"
  CC50: "23.1 µM"
- compound: "OCCN1CCN(CCCN2c3ccccc3Sc3ccc(Cl)cc32)CC1"
  CC50: "17.4 µM"
- compound: "CCCC(C(=O)OCCN(CC)CC)(c1ccccc1)c1ccccc1"
  CC50: "> 30 µM"
- compound: "CN1[C@@H]2CC[C@H]1C[C@@H](OC(c1ccccc1)c1ccccc1)C2 [Benztropine mesylate]"
  CC50: "> 30 µM"
- compound: "Cc1[nH]c(/C=C2\\C(=O)Nc3ccc(S(=O)(=O)N(C)c4cccc(Cl)c4)cc32)c(C)c1C(=O)N1CCN(C)CC1"
  CC50: "> 30 µM"
- compound: "CN(C)C(=O)C(CCN1CCC(O)(c2ccc(Cl)cc2)CC1)(c1ccccc1)c1ccccc1 [Loperamide]"
  CC50: "> 30 µM"

###

system: HEK293T cells; conditions: human
Structures can show the parent of a compound that is named as a salt.
Measured CC50, listed per entry for reference.

- compound: "NC(=O)c1ncn([C@@H]2O[C@H](CO)[C@@H](O)[C@H]2O)n1 [RBV, ribavirin]"
  CC50: "> 90 µM"
- compound: "O=C1NCCN1CCN1CCC(c2cn(-c3ccc(F)cc3)c3ccc(Cl)cc23)CC1 [Sertindole]"
  CC50: "> 30 µM"
- compound: "O=C(c1ccc(OCCN2CCCCC2)cc1)c1c(-c2ccc(O)cc2)sc2cc(O)ccc12 [Raloxifene, raloxifene hydrochloride]"
  CC50: "25.6 µM"
- compound: "CC(C)(N)C(=O)N[C@H](COCc1ccccc1)C(=O)N1CCC2(CC1)CN(S(C)(=O)=O)c1ccccc12 [Ibutamoren mesylate, ibutamoren mesylate]"
  CC50: "> 30 µM"

###

tested on: EBOV GP; type: cell-based, Ebola virus (EBOV)
Counter-ions that a name gives are not always drawn.
readout: reduction of the number of GP-positive spots (%)

- molecule: "CC(C)(N)C(=O)N[C@H](COCc1ccccc1)C(=O)N1CCC2(CC1)CN(S(C)(=O)=O)c1ccccc12 [Ibutamoren mesylate, ibutamoren mesylate]"
  reported_value: 74.2
- molecule: "O=C(c1ccc(OCCN2CCCCC2)cc1)c1c(-c2ccc(O)cc2)sc2cc(O)ccc12 [Raloxifene, raloxifene hydrochloride]"
  reported_value: 69.1
- molecule: "NC(=O)c1ncn([C@@H]2O[C@H](CO)[C@@H](O)[C@H]2O)n1 [RBV, ribavirin]"
  reported_value: 62.5
- molecule: "O=C1NCCN1CCN1CCC(c2cn(-c3ccc(F)cc3)c3ccc(Cl)cc23)CC1 [Sertindole]"
  reported_value: 84.7

###

assay: in vitro; conditions: human
Structures can show the parent of a compound that is named as a salt.
Measured CC50, listed per entry for reference.

- compound: "O=C1NCCN1CCN1CCC(c2cn(-c3ccc(F)cc3)c3ccc(Cl)cc23)CC1"
  readout_unit: "µM"
  CC50: 13.7
- compound: "O=C(c1ccc(OCCN2CCCCC2)cc1)c1c(-c2ccc(O)cc2)sc2cc(O)ccc12 [Raloxifene, raloxifene hydrochloride]"
  readout_unit: "µM"
  CC50: 23.4
- compound: "CC(C)(N)C(=O)N[C@H](COCc1ccccc1)C(=O)N1CCC2(CC1)CN(S(C)(=O)=O)c1ccccc12 [Ibutamoren mesylate, ibutamoren mesylate]"
  readout_unit: "µM"
  CC50: 76.7

###

experiment: in vitro; conditions: human
Counter-ions that a name gives are not always drawn.

- molecule: "CC(=O)c1ccc2c(c1)N(CCCN1CCC(CCO)CC1)c1ccccc1S2 [Piperacetazine]"
  readout_unit: "µM"
  qual: "="
  CC50: 26.1
- molecule: "O=C(c1ccc(OCCN2CCCCC2)cc1)c1c(-c2ccc(O)cc2)sc2cc(O)ccc12 [Raloxifene, raloxifene hydrochloride]"
  readout_unit: "µM"
  qual: "="
  CC50: 13.9
- molecule: "CN(C)CCCN1c2ccccc2Sc2ccc(C(F)(F)F)cc21 [Triflupromazine]"
  readout_unit: "µM"
  qual: ">"
  CC50: 30
- molecule: "CN1CCCN(C(c2ccccc2)c2ccc(Cl)cc2)CC1 (stereo not drawn) [Homochlorcyclizine]"
  readout_unit: "µM"
  qual: ">"
  CC50: 30
- molecule: "NC(=O)c1nc(F)c[nH]c1=O [Hit T-705, 6-flouro-3-hydroxy-2-pyrazinecarboxamide]"
  readout_unit: "µM"
  qual: ">"
  CC50: 90
- molecule: "CNCCCC12CCC(c3ccccc31)c1ccccc12 [Maprotiline]"
  readout_unit: "µM"
  qual: "="
  CC50: 25.1
